Cited source for all entries: patent EP0846114B1

- Test system: Neuronal Nicotinic Cholinergic Channels in IMR-32 Cells
- method.summary: 86Rb+ efflux in IMR-32 cells (Protocol B)
Quick list: % Inhibition @ 1 µM per entry.
experimental.readout: % Inhibition @ 1 µM (%)

- molecule: "CN1CC[C@@H]1COc1cnc(Cl)c(Cl)c1.Cl [Example 18]"
  experimental.readout: "% Inhibition @ 1 µM"
  measurement.units: "%"
  number: 0
- molecule: "CN1CC[C@H]1COc1cnc(Cl)c(Br)c1.Cl [Example 3]"
  experimental.readout: "% Inhibition @ 1 µM"
  measurement.units: "%"
  number: 55
- molecule: "CN1CCC[C@H]1COc1cnc(Cl)c(Cl)c1.Cl [Example 12]"
  experimental.readout: "% Inhibition @ 1 µM"
  measurement.units: "%"
  number: 5
- molecule: "CN1CCC[C@@H]1COc1cnc(Cl)c(Cl)c1.Cl [Example 10]"
  experimental.readout: "% Inhibition @ 1 µM"
  measurement.units: "%"
  number: 18
- molecule: "CN1CC[C@H]1COc1cnc(Cl)c(Cl)c1.Cl [Example 16]"
  experimental.readout: "% Inhibition @ 1 µM"
  measurement.units: "%"
  number: 35

====

- target.of.assay: neuronal nicotinic cholinergic channel receptors (Rattus norvegicus, UniProt P09483+P12390)
- Construct: crude synaptic membrane preparations from whole rat brain; from tissue; host or cells: whole rat brain, crude synaptic membranes
- Sequence (P09483 31-630): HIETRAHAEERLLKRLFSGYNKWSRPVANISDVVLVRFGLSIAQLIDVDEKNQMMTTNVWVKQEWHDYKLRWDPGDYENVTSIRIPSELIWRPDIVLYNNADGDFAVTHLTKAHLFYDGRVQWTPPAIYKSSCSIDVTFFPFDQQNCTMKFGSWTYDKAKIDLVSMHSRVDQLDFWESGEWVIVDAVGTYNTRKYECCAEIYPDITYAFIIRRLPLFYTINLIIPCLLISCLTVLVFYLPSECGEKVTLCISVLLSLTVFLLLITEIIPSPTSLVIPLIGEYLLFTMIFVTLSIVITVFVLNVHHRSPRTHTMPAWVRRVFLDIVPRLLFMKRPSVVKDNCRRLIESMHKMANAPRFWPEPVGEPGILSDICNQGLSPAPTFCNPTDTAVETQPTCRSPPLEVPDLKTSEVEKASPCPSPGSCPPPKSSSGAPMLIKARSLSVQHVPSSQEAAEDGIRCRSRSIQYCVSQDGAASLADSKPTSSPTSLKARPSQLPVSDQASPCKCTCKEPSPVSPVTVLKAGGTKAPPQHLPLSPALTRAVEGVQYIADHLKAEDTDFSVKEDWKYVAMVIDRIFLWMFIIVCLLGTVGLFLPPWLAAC
- Sequence (P12390 25-500): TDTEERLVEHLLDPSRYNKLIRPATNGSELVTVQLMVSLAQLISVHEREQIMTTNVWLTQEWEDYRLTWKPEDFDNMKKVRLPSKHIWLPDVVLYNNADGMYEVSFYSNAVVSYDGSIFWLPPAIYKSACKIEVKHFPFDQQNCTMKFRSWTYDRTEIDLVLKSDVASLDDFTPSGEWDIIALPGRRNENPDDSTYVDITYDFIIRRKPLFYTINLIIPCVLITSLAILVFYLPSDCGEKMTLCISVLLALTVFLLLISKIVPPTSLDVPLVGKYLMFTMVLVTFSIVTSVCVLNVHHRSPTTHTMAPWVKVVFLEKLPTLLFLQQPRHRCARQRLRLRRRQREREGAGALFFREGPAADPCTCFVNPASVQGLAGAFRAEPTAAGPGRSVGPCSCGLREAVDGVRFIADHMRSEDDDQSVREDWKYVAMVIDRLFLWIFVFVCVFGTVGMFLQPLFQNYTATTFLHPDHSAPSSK
- method.summary: [3H]-cytisine radioligand displacement binding (Protocol A)
pKi: −log10 of the molar value.

- compound: "CN1CCC[C@H]1COc1cnc(Cl)c(Br)c1.Cl.Cl [Example 5, dihydrochloride]"
  pKi: 9.46
- compound: "Cl.Cl.Clc1ncc(OC[C@H]2CCCN2)cc1Br [Example 7, dihydrochloride]"
  pKi: 10.00
- compound: "Cl.Clc1cc(OC[C@H]2CCN2)cnc1Cl [Example 17, hydrochloride]"
  pKi: 10.22
- compound: "CN1CCC[C@@H]1COc1cnc(Cl)c(Br)c1.Cl [Example 8, hydrochloride]"
  pKi: 7.89
- compound: "CCc1cc(OC[C@@H]2CCN2)cnc1Cl.Cl [Example 45, hydrochloride]"
  pKi: 10.40

====

- target.of.assay: neuronal nicotinic cholinergic channel receptors (Rattus norvegicus, UniProt P09483+P12390)
- Construct: crude synaptic membrane preparations from whole rat brain; from tissue; host or cells: whole rat brain, crude synaptic membranes
- method.summary: [3H]-cytisine radioligand displacement binding (Protocol A)
- condition.summary: displacement of [3H]-CYT (1.25 nM), crude synaptic membranes from whole rat brain; IC50 converted to Ki (Cheng and Prusoff); read-out: Binding

- molecule: "CN1CC[C@H]1COc1cnc(Cl)c(C#N)c1.Cl [Example 50, hydrochloride]"
  Ki [nM]: 0.88
- molecule: "CN1CCC[C@H]1COc1cnc(Cl)c(Cl)c1.Cl [Example 12, hydrochloride]"
  Ki [nM]: 0.11
- molecule: "CCc1cc(OC[C@@H]2CCCN2)cnc1Cl.Cl [Example 46, hydrochloride]"
  Ki [nM]: 0.6
